Target: human MAL (human) (UniProt P58753)
Experiment: P3 phage display panning on plate-immobilised MAL, after round 4, NGS
measuredAttribute: NGS count (count)
Field format: number, assumed count, no unit text.

Before answering, review these 6 worked examples.
(Q) Find the measured NGS count of LQNQWKLALTKVANLV and report it.
(A) 2280

(Q) Find the measured NGS count of GFLYQAFAREGFKIFM and report it.
(A) 1760

(Q) Find the measured NGS count of NQWRNALTAAANLSGW and report it.
(A) 25800

(Q) Find the measured NGS count of ESILNQLRRSSQSIAN and report it.
(A) 3680

(Q) Find the measured NGS count of RLLKWKEALHQFHSWV and report it.
(A) 14900

(Q) Find the measured NGS count of HHKGSYGEALAEHEKR and report it.
(A) 3060

Further cases:
(Q) Find the measured NGS count of EWIREQLRPALKERLP and report it.
(A) 2350

(Q) Find the measured NGS count of YNFISHLYDALHRNRI and report it.
(A) 2680

(Q) Find the measured NGS count of SSFREGLWRLLELSKK and report it.
(A) 30000

(Q) Find the measured NGS count of YAFTGHLHRYLVQRGV and report it.
(A) 43800

(Q) Find the measured NGS count of HQAFWNRLWAKLKPPT and report it.
(A) 1930

(Q) Find the measured NGS count of FLNFRGLDVRNYFLGH and report it.
(A) 2860

(Q) Find the measured NGS count of KEVEGWRDALTKVASL and report it.
(A) 3760

(Q) Find the measured NGS count of LKVESWRQALEKAGKL and report it.
(A) 5180

Recorded values, source patent EP4613859A1.
